The values you see were collected from paper PMC9479156.

Kindly supply the reported pIC50 values for the records listed here.
- Test system: HepG2 liver hepatocellular carcinoma
- TEST_PROTOCOL: MTT cytotoxicity assay HepG2
- Type: cell-based, human
- MEASUREMENT_CONDITIONS: Homo sapiens, HepG2; MTT, 72 h, ± SD; read-out: IC50 HepG2
Give bare numbers, as −log10 of the molar value.

COMPOUND: CO[C@H]1O[C@@H]2O[C@@]3(C)CC[C@H]4[C@H](C)CC[C@@H]([C@H]1C)[C@@]24OO3
SYSTEM: HepG2 liver hepatocellular carcinoma
VALUE_REPORTED: 5.99
//
COMPOUND: C[C@H]1[C@H](N2CCSCC2)O[C@@H]2O[C@@]3(C)CC[C@H]4[C@H](C)CC[C@@H]1[C@@]24OO3 [Artemiside, artemiside]
SYSTEM: HepG2 liver hepatocellular carcinoma
VALUE_REPORTED: 6.26

Task item: Complete the entry with pIC50 for `C[C@H]1[C@H](N2CCS(=O)(=O)CC2)O[C@@H]2O[C@@]3(C)CC[C@H]4[C@H](C)CC[C@@H]1[C@@]24OO3`
Reply: 6.24
